target: Grp94 (recombinant cGrp94) (Canis lupus familiaris (Dog) (Canis familiaris)); test: Fluorescence polarization (FP) assay, cGrp94 with FITC-GDA; assay type: binding; settings: apparent Kd, cGrp94 and FITC-GDA, triplicates, ± SEM, read-out: Kd Grp94
pKd: −log10 of the molar value.
TEST_READOUT: pKd

Solved entries:
SMILES_DATA	QUANTITATIVE_RESULT
NC(=O)c1ccc(-n2cccc2Cc2cccnc2)cc1N[C@H]1CC[C@H](O)CC1	5.26
NC(=O)c1ccc(-n2cccc2Cc2ccncc2)cc1N[C@H]1CC[C@H](O)CC1	4.88
NC(=O)c1ccc(-n2cccc2Cc2cccc(F)c2)cc1N[C@H]1CC[C@H](O)CC1	5.34
Cc1ccccc1-c1cccn1-c1ccc(C(N)=O)c(N[C@H]2CC[C@H](O)CC2)c1	5.00
NC(=O)c1ccc(-n2cccc2Cc2ccc(F)cc2)cc1N[C@H]1CC[C@H](O)CC1	5.08
NC(=O)c1ccc(-n2cccc2Cc2ccccn2)cc1N[C@H]1CC[C@H](O)CC1	4.85

A. NC(=O)c1ccc(-n2cccc2-c2cccnc2)cc1N[C@H]1CC[C@H](O)CC1
B. Cc1cccc(-c2cccn2-c2ccc(C(N)=O)c(N[C@H]3CC[C@H](O)CC3)c2)c1
C. NC(=O)c1ccc(-n2cccc2Cc2cccc(Cl)c2)cc1N[C@H]1CC[C@H](O)CC1
Please order the records by their reported pKd, lowest number first. Order the labels as requested and list them. B, A, C
(B: 5.03, A: 5.26, C: 5.61)

----------
This section presents compounds with their documented viability at 72 h, 25 µM values.
assay: Anti-proliferation assay (MTS/PMS), MDA-MB-231; format: cell-based; settings: human, MDA-MB-231 cells, MDA-MB-231, 25 μM

Field request: viability at 72 h, 25 µM | item: NC(=O)c1ccc(-n2cccc2Cc2ccccc2O)cc1N[C@H]1CC[C@H](O)CC1 > 95%

Another compound: NC(=O)c1ccc(-n2cccc2Cc2ccccc2F)cc1N[C@H]1CC[C@H](O)CC1 > 95%

----------
The molecules listed here are annotated with their viability at 72 h, 25 µM.
test: Anti-proliferation assay (MTS/PMS), PC-3 MM-2; assay type: cell-based; settings: human, PC-3 MM-2 cells, PC-3 MM-2, 25 μM

SMILES_DATA	viability at 72 h, 25 µM
NC(=O)c1ccc(-n2cccc2Cc2ccccc2O)cc1N[C@H]1CC[C@H](O)CC1	> 95%

Consider the record given below.
Please report the recorded viability at 72 h, 25 µM for NC(=O)c1ccc(-n2cccc2Cc2ccccc2F)cc1N[C@H]1CC[C@H](O)CC1 . > 95%

----------
target: Grp94 (recombinant cGrp94) (Canis lupus familiaris (Dog) (Canis familiaris), UniProt P41148); assay: Fluorescence polarization (FP) assay, cGrp94 with FITC-GDA; assay type: binding; settings: apparent Kd, cGrp94 and FITC-GDA, triplicates, ± SEM, read-out: Kd Grp94
Sequence (P41148 22-804): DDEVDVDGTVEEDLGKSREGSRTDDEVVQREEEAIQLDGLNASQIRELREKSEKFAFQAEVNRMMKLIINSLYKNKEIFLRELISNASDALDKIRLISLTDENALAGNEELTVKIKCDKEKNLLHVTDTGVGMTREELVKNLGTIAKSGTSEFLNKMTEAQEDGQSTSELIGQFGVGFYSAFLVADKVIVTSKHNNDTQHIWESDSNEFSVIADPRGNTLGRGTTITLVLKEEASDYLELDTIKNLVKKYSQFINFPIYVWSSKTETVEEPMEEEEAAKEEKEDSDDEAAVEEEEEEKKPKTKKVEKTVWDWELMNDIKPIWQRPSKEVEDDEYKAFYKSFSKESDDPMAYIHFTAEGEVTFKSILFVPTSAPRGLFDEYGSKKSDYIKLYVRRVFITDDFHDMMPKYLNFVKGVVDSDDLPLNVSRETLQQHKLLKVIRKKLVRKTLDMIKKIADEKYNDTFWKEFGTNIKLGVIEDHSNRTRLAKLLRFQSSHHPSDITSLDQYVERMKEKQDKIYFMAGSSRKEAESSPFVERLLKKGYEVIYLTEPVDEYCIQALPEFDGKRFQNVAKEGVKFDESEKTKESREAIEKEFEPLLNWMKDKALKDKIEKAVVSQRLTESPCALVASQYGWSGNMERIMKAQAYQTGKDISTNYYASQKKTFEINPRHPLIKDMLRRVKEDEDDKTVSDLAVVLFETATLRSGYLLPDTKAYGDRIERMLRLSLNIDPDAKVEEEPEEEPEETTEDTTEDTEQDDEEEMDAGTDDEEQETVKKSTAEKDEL
TEST_READOUT: Kd (µM)

Some molecules with recorded Kd:
SMILES_DATA	UNIT_LABEL	Kd
NC(=O)c1ccc(-n2cccc2-c2ccncc2)cc1N[C@H]1CC[C@H](O)CC1	µM	13.2
COc1ccccc1Cc1cccn1-c1ccc(C(N)=O)c(N[C@H]2CC[C@H](O)CC2)c1	µM	1.15

A. NC(=O)c1ccc(-n2cccc2Cc2ccccc2Cl)cc1N[C@H]1CC[C@H](O)CC1
B. Cc1ccccc1Cc1cccn1-c1ccc(C(N)=O)c(N[C@H]2CC[C@H](O)CC2)c1
C. NC(=O)c1ccc(-n2cccc2-c2ccccn2)cc1N[C@H]1CC[C@H](O)CC1
Reorder: Kd, max to min. Rank them, then answer with their labels in that order. C, B, A

Entry source: patent US10975030B2
